Data provenance: PubChem BioAssay (NCI)

System: DMS 114 small cell lung
Test: NCI tumour cell line growth inhibition, 48 h
Consider the following compounds; for each one, report its TGI.

Consider COC1=CC(=O)C2(C=C1OC)OC[C@H]1Oc3c(ccc4c3C=CC(C)(C)O4)C(=O)[C@H]12 (some centres not stated) . Its measured TGI is 94.5 µM

Quick note, TGI for "NN=C1/C(=C\c2ccccc2)CCC/C1=C/c1ccccc1" landed at 75.1 µM

Per the record, "C(=C\c1ccc2ccccc2c1Nc1ccccc1)/c1ccccc1" has TGI of > 100 µM

Value of TGI reported for the compound CCNC(=O)O/N=C1\CCC2[C@@H]3CC=C4C[C@@H](OC(=O)NCC)CC[C@]4(C)C3CC[C@]12C (some centres not stated) is 1.82 µM

TGI recorded for this compound, "O=S(c1ccc(O)cc1)c1ccc(O)cc1" , is > 100 µM

Noted for O=C(CC(C(=O)c1ccsc1)c1cccs1)c1cccs1 (configuration not stated) : its TGI reads > 100 µM

Record CCOC(=O)C(Oc1ccc(OC)c2c1C(=O)CCC2)c1ccccc1 (configuration not stated) . Reported TGI: > 100 µM

Per the record, O=C(CC1(O)C(=O)Nc2ccccc21)c1cccc(O)c1 (configuration not stated) has TGI of > 100 µM

The recorded TGI for entry N/N=C1/C(=O)N(c2ccc(Cl)cc2)C(=O)C(=O)C1c1nc2ccccc2s1 (configuration not stated) equals > 100 µM

Field TGI (entry "Nc1ncc(CN2CCCC2)c(-c2ccccc2O)n1" ) reads > 750 µM

So, "O=C1OCc2nc3c(c(-c4ccccc4C(F)(F)F)c21)C(=O)OC3" ? Its TGI was > 100 µM

Per the records, this compound ( CCOC(=O)C1=C(C)N(NC(=O)Nc2ccccc2)C2(N)N(NC(=O)Nc3ccccc3)C(C)=C(C(=O)OCC)C12C#N (configuration not stated) ) has TGI equal to 32.9 µM

---

Tested on: MDA-MB-231 breast
Experiment: NCI tumour cell line growth inhibition, 48 h
Kind request: treat 20 µM as inclusive, so TGI at 20 µM or higher is true, anything lower is false.

Q: Does the reported TGI for C=C(C)[C@@H]1CC[C@]2(C(=O)O)CC[C@]3(C)[C@H](CC[C@@H]4[C@@]5(C)CCC(N)C(C)(C)[C@@H]5CC[C@]43C)[C@@H]12 (some centres not stated) fall at or above the 20 µM mark?
Result: false

Q: Answer whether TGI of "COC(=O)[C@@H]1CN(C(=O)Cc2ccccc2)C(=O)N1" is greater than or equal to 20 µM.
Result: true

Q: Determine whether this compound has TGI no lower than 20 µM: "O=C(NOCCO)c1ccc2cncn2c1Nc1ccc(I)cc1F"
Result: true

Q: Decide: is the reported value of TGI for "COc1cc2c(cc1C)NC(=O)/C2=C/c1c(Cl)[nH]c2ccccc12" equal to or greater than 20 µM?
Result: false

Q: Has "c1cc(CSP234N5CCN2CCN3CCN4CC5)cc(CSP234N5CCN2CCN3CCN4CC5)c1" a recorded TGI greater than or equal to 20 µM?
Result: true

Q: Please tell me: is the compound "COc1cccc(/C=C\C(=O)c2ccccc2)c1" at or over 20 µM in terms of TGI?
Result: true

Q: Decide: is the reported value of TGI for "COc1cc2c3c(c4cc(OC)c(OC)cc4c2cc1OC)CN1CCC[C@H]1C3" equal to or greater than 20 µM?
Result: false

Q: Say whether "COc1ccc(/C=C\c2cc(OC)c(OC)c(OC)c2)cc1NC(=O)/C=C/c1cc(OC)c(OC)c(OC)c1" shows TGI of 20 µM or more.
Result: true

Q: Has "O=C(Nc1c[nH]c(=O)[nH]c1=O)Oc1ccccc1" a recorded TGI greater than or equal to 20 µM?
Result: true

Q: Assess whether reported TGI for "Oc1ccccc1/C=N\NC(=S)Nc1ccc(F)cc1" sits at 20 µM or higher.
Result: true

Q: # check: TGI of "O=C(O)COc1c(Cl)cc(Cl)c(C(c2c(Cl)cc(Cl)c(OCC(=O)O)c2Cl)C(Cl)(Cl)Cl)c1Cl" is greater than or equal to 20 µM
Result: true

Q: Hello, I need to know if "COc1ccc([C@@H]2[C@@H](Cl)C(=O)N2c2cc(OC)c(OC)c(OC)c2)cc1C" has measured TGI not below 20 µM. Thanks!
Result: true

Q: Record COc1cc(F)c(F)c(Nc2ccc(I)cc2F)c1NS(=O)(=O)C1(CC(O)CO)CC1 (configuration not stated) ; criterion: TGI no lower than 20 µM. Met?
Result: true

Q: Determine whether measured TGI meets or exceeds 20 µM for CC[C@H](C)[C@H](NC(=O)CN(C)C)C(=O)N(C)[C@H](C[C@@H](OC(C)=O)c1nc(C(=O)NC23C4C5C2C2C3C4C52C(=O)OC)cs1)C(C)C (some centres not stated)
Result: false

Q: Confirm if TGI reported for the compound COc1cc2c(cc1O)CCN[C@@]21CS[C@H]2c3c(OC(C)=O)c(C)c4c(c3C(COC1=O)N1C2C2NC(Cc3cc(C)c(OC)c(O)c32)[C@@H]1O)OCO4 (some centres not stated) is 20 µM or above.
Result: false

Q: Has "COc1ccc(/C(=C(\c2ccccc2)[N+](=O)[O-])c2ccc(OCCN3CCCC3)cc2)cc1" a recorded TGI greater than or equal to 20 µM?
Result: false

Q: In plain terms: is recorded TGI at least 20 µM for CC1(C)OCC(/C=C\C(O)CC2(C)OCCO2)CO1 (configuration not stated) ?
Result: true

Q: Please check the record "O=C(C=P(c1ccccc1)(c1ccccc1)c1ccccc1)c1ccccc1-c1ccccc1C(=O)C=P(c1ccccc1)(c1ccccc1)c1ccccc1" and state if its TGI is at or above 20 µM.
Result: false

Q: Decide: TGI of COc1cc(C2c3cc4c(cc3[C@@H](Nc3ccc(F)cc3)C3COC(=O)[C@H]23)OCO4)cc(OC)c1O (some centres not stated) >= 20 µM?
Result: false

Q: Would you say N#CC1=C(N)OC2=C(CCCc3ccc([N+](=O)[O-])cc32)C1c1ccc(Cl)cc1 (configuration not stated) shows TGI at minimum 20 µM?
Result: true

Q: Given COc1cc2c(c(O)c1OC)C(O)C1CCC(=O)N1C2c1ccc2c(c1)OCO2 (configuration not stated) , state whether its TGI is at least 20 µM.
Result: true

Q: Could you tell me if the measured TGI of "COc1ccc2cc(CNCCCCCCNC(=O)Nc3cccc4ccccc34)ccc2c1" reaches 20 µM or more?
Result: true

Q: Determine whether this compound has TGI no lower than 20 µM: "COc1cc(OC)c(/C=C/S(=O)(=O)Cc2ccc(OC)c(N)n2)c(OC)c1"
Result: true

Q: Determine whether measured TGI meets or exceeds 20 µM for "NS(=O)(=O)c1cccc(Nc2cc(-c3ccc(F)cc3)[nH]n2)c1"
Result: true

Q: Can CC(NC(CC12CC3CC(CC(C3)C1)C2)C(N)=O)c1ccccc1 (configuration not stated) be said to have TGI at or above 20 µM?
Result: true

Q: Please check the record CCCCCCCC(=O)NC(C)(C)C(=O)NCC(=O)NC(CC(C)C)C(=O)NC(C)(C)C(=O)NCC(=O)NCC(=O)NC(CC(C)C)C(=O)NC(C)(C)C(=O)NCC(=O)NC(C(=O)NC(CO)CC(C)C)C(C)CC (configuration not stated) and state if its TGI is at or above 20 µM.
Result: false

Q: Is TGI for COc1cccc2c1C(=O)c1c(O)c3c(c(O)c1C2=O)C[C@@](O)(C(C)=O)C[C@@H]3OC1CC(N(Cc2ccccc2)Cc2ccccc2)C(O)C(C)O1 (some centres not stated) at or above 20 µM?
Result: true

Q: State whether the measured TGI reaches 20 µM, counting equality as reaching it, for C1CCC(CC2CCC(NC3=NCCO3)CC2)CC1 (configuration not stated)
Result: true

Q: Item "O=C1OC(c2ccccc2)=N/C1=C\c1ccccc1" with TGI of 20 µM or above?
Result: true

Q: Kindly determine if TGI recorded for "C=CCSC1=N/C(=C\c2ccc(C)cc2)C(=O)N1CC=C" is above or exactly 20 µM.
Result: true

Q: Tell me whether TGI is at least 20 µM here: "COC(=O)[C@]12CC[C@@H](C)[C@H](C)[C@@H]1C1=CC[C@@H]3[C@@]4(C)C[C@@H](OC(C)=O)[C@H](OC(C)=O)[C@@](C)(COC(C)=O)[C@@H]4[C@H](O)C[C@@]3(C)[C@]1(C)CC2"
Result: true

Q: Item "O=C(Cn1c(=O)oc2ccccc21)N(c1ccccc1)c1ccccc1" with TGI of 20 µM or above?
Result: true

Q: Answer whether TGI of "CC(C)=CC(=O)c1[nH]c2ccccc2c1CC(=O)NCCc1cnc[nH]1" is greater than or equal to 20 µM.
Result: true

Q: Exam item: decide whether the reported TGI for CC(C)C(Sc1nc(N)nc2nc[nH]c12)C(=O)O (configuration not stated) is at least 20 µM.
Result: true

Q: Form field: TGI at least 20 µM? Entry: CCC(C)C(NC(=O)c1cccc2c(=O)c3ccccc3[nH]c12)C(=O)O (configuration not stated)
Result: true

Q: Is the recorded value of TGI equal to or greater than 20 µM for this compound? "CC1=C(C(=S)Nc2ccc(Cl)c(C(=O)OC(C)C)c2)SCCO1"
Result: true

Q: Does "Cc1ccc2nc(CN(CCN(Cc3nc4ccc(C)cc4[nH]3)Cc3nc4ccc(C)cc4[nH]3)Cc3nc4ccc(C)cc4[nH]3)[nH]c2c1" have a reported TGI of at least 20 µM?
Result: false
